Tested on: 292921-168-R-J2-PDC complex spheroid growth;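 note: spheroids exposed to compounds for seven days after three days of growth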
procedure-details: Anticancer human tumor 292921-168-R-J2-PDC patient-derived pancreatic carcinoma cell line growth inhibition [AhR]; active = viability on the fitted dose curve at most 10% of control; inactive = the rest
condition-parameters: second compound 1 µM; first compound 0.0949 µM
Tick one outcome: Yes for active, No for inactive

CC(C)CC(NC(=O)C(Cc1ccccc1)NC(=O)c1cnccn1)B(O)O (configuration not stated) + CC(CO)NC(=O)c1cc(-c2ccc(Cl)cc2)nn(-c2cnn(C)c2)c1=O ... Yes
O=C(C=Cn1cnc(-c2cc(C(F)(F)F)cc(C(F)(F)F)c2)n1)NNc1cnccn1 + Cc1cncc(-c2nc(NCCc3c[nH]c4ccccc34)c3ncn(C(C)C)c3n2)c1 ... No
Nc1ncn(C2CC(O)C(CO)S2)c(=O)n1 (configuration not stated) + CC(CO)NC(=O)c1cc(-c2ccc(Cl)cc2)nn(-c2cnn(C)c2)c1=O ... No
CC(C)CC(NC(=O)C(Cc1ccccc1)NC(=O)c1cnccn1)B(O)O (configuration not stated) + Cc1ccccc1N=Nc1ccc(NC(=O)c2ccnn2C)c(C)c1 ... Yes
CCc1c2c(nc3ccc(O)cc13)-c1cc3c(c(=O)n1C2)COC(=O)[C@]3(O)CC + CC(CO)NC(=O)c1cc(-c2ccc(Cl)cc2)nn(-c2cnn(C)c2)c1=O ... Yes
CCN(c1cc(-c2ccc(CN3CCOCC3)cc2)cc(C(=O)NCc2c(C)cc(C)[nH]c2=O)c1C)C1CCOCC1 + CC(CO)NC(=O)c1cc(-c2ccc(Cl)cc2)nn(-c2cnn(C)c2)c1=O ... No

# input for lookup
Assay result, entry Nc1ncn(C2CC(O)C(CO)S2)c(=O)n1 (configuration not stated) + Cc1cncc(-c2nc(NCCc3c[nH]c4ccccc34)c3ncn(C(C)C)c3n2)c1 — outcome? No
